- System: HCT-116
- TEST_SUMMARY: Cytotoxicity against human HCT-116 cells harboring p53 knock out gene assessed as reduction in cell viability incubated for 72 hrs by SRB assay
- Assay type: functional, cell-based
- SETUP_CONDITIONS: HCT-116, 72 h
# key: entry, value: IC50
QUANTITY_KIND: IC50 (µM)

C=C1C(=O)O[C@@H]2CCCn3cccc3[C@@H]12
14
O=c1[nH]cc(F)c(=O)[nH]1 [FLUOROURACIL]
4.3

----------
- Tested on: HT-29
- TEST_SUMMARY: Cytotoxicity against human HT-29 cells assessed as reduction in cell viability incubated for 72 hrs by SRB assay
- SETUP_CONDITIONS: HT-29, 72 h
pIC50: −log10 of the molar value.
QUANTITY_KIND: pIC50

C=C1C(=O)O[C@@H]2CCCn3cccc3[C@@H]12
5.07
